Target: CYP2C9 (Homo sapiens)
Sequence (P11712 whole entry): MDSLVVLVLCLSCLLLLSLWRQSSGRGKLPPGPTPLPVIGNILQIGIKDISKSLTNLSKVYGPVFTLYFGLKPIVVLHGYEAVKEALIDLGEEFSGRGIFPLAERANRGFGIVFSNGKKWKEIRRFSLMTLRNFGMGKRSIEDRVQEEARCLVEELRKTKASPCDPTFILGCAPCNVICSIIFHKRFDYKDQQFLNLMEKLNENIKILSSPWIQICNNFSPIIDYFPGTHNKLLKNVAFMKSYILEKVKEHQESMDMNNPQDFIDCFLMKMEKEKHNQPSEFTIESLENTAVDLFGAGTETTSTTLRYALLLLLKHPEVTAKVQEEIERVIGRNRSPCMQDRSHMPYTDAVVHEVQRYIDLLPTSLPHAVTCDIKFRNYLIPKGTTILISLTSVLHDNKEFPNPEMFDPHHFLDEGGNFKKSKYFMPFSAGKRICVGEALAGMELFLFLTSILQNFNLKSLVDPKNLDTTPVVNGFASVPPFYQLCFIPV
Test: Inhibition of CYP2C9 at 10 uM
Assay type: ADME
RESULT_TYPE: inhibition at 10 µM

| MOLECULE | RESULT_TYPE | REPORTED |
| --- | --- | --- |
| CS(=O)(=O)Nc1c(Cl)ccc2c1CCCC2c1ncc[nH]1 (stereo unspecified) | inhibition at 10 µM | < 25% |

* * *

Target: Alpha-1A adrenergic receptor (Homo sapiens, UniProt P35348)
Sequence (P35348 whole entry): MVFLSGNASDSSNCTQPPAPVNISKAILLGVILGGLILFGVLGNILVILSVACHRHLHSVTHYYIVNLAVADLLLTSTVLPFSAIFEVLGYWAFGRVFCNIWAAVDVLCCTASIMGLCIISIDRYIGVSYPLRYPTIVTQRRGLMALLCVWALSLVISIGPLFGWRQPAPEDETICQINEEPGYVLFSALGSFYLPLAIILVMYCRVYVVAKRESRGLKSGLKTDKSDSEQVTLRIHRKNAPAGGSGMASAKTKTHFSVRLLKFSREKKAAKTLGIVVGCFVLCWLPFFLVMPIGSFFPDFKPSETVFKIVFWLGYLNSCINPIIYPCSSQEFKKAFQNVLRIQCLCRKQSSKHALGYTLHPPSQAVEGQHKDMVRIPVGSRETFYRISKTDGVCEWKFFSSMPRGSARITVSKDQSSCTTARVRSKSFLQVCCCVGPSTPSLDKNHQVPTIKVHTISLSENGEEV
Test: Agonist activity at human cloned adrenergic alpha-1A receptor expressed in CHO cells assessed as calcium mobilization by FLIPR
pEC50: −log10 of the molar value.
# Lookup of reported pEC50 keyed by entry

| MOLECULE | QUAL | pEC50 |
| --- | --- | --- |
| Clc1ccc2c(c1-c1cn[nH]c1)CCC2c1ncc[nH]1 (stereo not drawn) | = | 7.11 |
| Cn1ccc(-c2cccc3c2CCC3c2ncc[nH]2)n1 (stereo not drawn) | < | 5.89 |
| CS(=O)(=O)Nc1cccc2c1CCC2c1ncc[nH]1 (stereo not drawn) | = | 7.15 |
| CCS(=O)(=O)Nc1cccc2c1CCC2c1ncc[nH]1 (stereo not drawn) | = | 7.49 |
| c1ccc2c(c1)CCCC2c1ncc[nH]1 (stereo not drawn) | = | 6.41 |
| Cc1ccc2c(c1NS(C)(=O)=O)CCC2c1ncc[nH]1 (stereo not drawn) | = | 7.48 |
| Cn1cc(-c2cccc3c2CCC3c2ncc[nH]2)cn1 (stereo not drawn) | < | 5.54 |
| CNC(=O)c1cccc2c1CCC2c1ncc[nH]1 (stereo not drawn) | = | 5.66 |
| Cc1oncc1-c1cccc2c1CCC2c1ncc[nH]1 (stereo not drawn) | = | 6.95 |
| COc1cccc2c1CCC2c1ncc[nH]1 (stereo not drawn) | = | 7.49 |
| Cn1nccc1-c1cccc2c1CCC2c1ncc[nH]1 (stereo not drawn) | = | 6.56 |
| c1ccc(-c2cccc3c2CCC3c2ncc[nH]2)nc1 (stereo not drawn) | = | 5.94 |
| c1cc(-c2cn[nH]c2)c2c(c1)C(c1ncc[nH]1)CC2 (stereo not drawn) | = | 7.85 |
| CCS(=O)(=O)Nc1cccc(Cc2c[nH]cn2)c1 | = | 8.05 |
| c1cc(-c2nccs2)c2c(c1)C(c1ncc[nH]1)CC2 (stereo not drawn) | = | 6.37 |
| Clc1ccc2c(c1-c1ccn[nH]1)CCC2c1ncc[nH]1 (stereo not drawn) | = | 6.49 |
| CCCS(=O)(=O)Nc1cccc2c1CCC2c1ncc[nH]1 (stereo not drawn) | = | 5.87 |
| CS(=O)(=O)Nc1cccc2c1CCCC2c1ncc[nH]1 (stereo in doubt; 17) | = | 6.63 |
| c1cncc(-c2cccc3c2CCC3c2ncc[nH]2)c1 (stereo not drawn) | = | 5.69 |
| Cc1[nH]ncc1-c1cccc2c1CCC2c1ncc[nH]1 (stereo not drawn) | = | 8.52 |
| c1ccc2c(c1)CCC2c1ncc[nH]1 (stereo not drawn) | = | 6.33 |
| COc1c(Cl)ccc2c1CCC2c1ncc[nH]1 (stereo not drawn) | = | 6.35 |
| CS(=O)(=O)Nc1cccc2c1CCCC2c1ncc[nH]1 (stereo in doubt; 17a) | = | 6.85 |
| CS(=O)(=O)Nc1cccc2c1CCCC2c1ncc[nH]1 (stereo in doubt; 17b) | = | 5.67 |
| c1cc(-c2cc[nH]n2)c2c(c1)C(c1ncc[nH]1)CC2 (stereo not drawn) | = | 7.28 |
| CS(=O)(=O)Nc1c(Cl)ccc2c1CCCC2c1ncc[nH]1 (stereo not drawn) | = | 7.37 |
| c1cc(-c2ncco2)c2c(c1)C(c1ncc[nH]1)CC2 (stereo not drawn) | = | 6.77 |
| COc1c(C)ccc2c1CCC2c1ncc[nH]1 (stereo not drawn) | = | 6.78 |

Cited source: ChEMBL document CHEMBL1145605
